# System: Blumeria graminis f. sp. tritici
# test-method-notes: Test C: wheat powdery mildew, preventive spray on wheat seedlings
# Assay type: in vivo
# condition-description: 50 ppm, rated after 8 days, 100 = 100% disease control, 0 = no control
observed-property: Test C disease control rating (wheat powdery mildew) (%)

| compound | assayed-system | measurement |
| --- | --- | --- |
| Cc1nn(C)c(Nc2c(F)cc(I)cc2[N+](=O)[O-])c1-c1ccc(F)cc1Cl [Compound 47] | Blumeria graminis f. sp. tritici | 89 |
| Cc1nn(C)c(Nc2c(Cl)cc(F)cc2[N+](=O)[O-])c1-c1ccc(Cl)cc1Cl [Compound 10] | Blumeria graminis f. sp. tritici | 48 |
| Cc1nn(C)c(Nc2c(Cl)cc(Cl)cc2[N+](=O)[O-])c1-c1ccc(C#N)cc1Cl [Compound 116] | Blumeria graminis f. sp. tritici | 56 |
| Cc1nn(C)c(Nc2c([N+](=O)[O-])ccc(F)c2F)c1-c1ccc(F)cc1Cl [Compound 7] | Blumeria graminis f. sp. tritici | 94 |

----------
# Tested on: Septoria tritici
# test-method-notes: Test A: wheat leaf blotch, preventive spray on wheat seedlings
# Format: in vivo
# condition-description: 50 ppm, 100 = 100% disease control, 0 = no control relative to controls
observed-property: Test A disease control rating (wheat leaf blotch) (%)

| smiles-representation | measurement |
| --- | --- |
| COc1ccc(Nc2c(-c3ccc(C#N)cc3F)c(C)nn2C)c([N+](=O)[O-])c1 | 100 |
| Cc1cc(Cl)c(Nc2c(-c3ccc(F)cc3Cl)c(C)nn2C)c([N+](=O)[O-])c1 | 100 |
| Cc1nn(C)c(Nc2cccc(Cl)c2[N+](=O)[O-])c1-c1ccc(F)cc1Cl | 100 |

----------
# System: Blumeria graminis f. sp. tritici
# test-method-notes: Test C: wheat powdery mildew, preventive spray on wheat seedlings
# Type: in vivo
# condition-description: 50 ppm, rated after 8 days, 100 = 100% disease control, 0 = no control
# Text: General protocol for preparing test suspensions for Tests A-F: the test compounds were first dissolved in acetone in an amount equal to 3% of the final volume and then suspended at the desired concentration (in ppm) in acetone and purified water (50/50 mix by volume) containing 250 ppm of the surfactant PEG400 (polyhydric alcohol esters). The resulting test suspensions were then used in Tests A-F. The test suspension was sprayed to the point of run-off on wheat seedlings. […]
observed-property: Test C disease control rating (wheat powdery mildew) (%)

| smiles-representation | measurement |
| --- | --- |
| Cc1cc(Cl)c(Nc2c(-c3ccc(C#N)cc3Cl)c(C)nn2C)c([N+](=O)[O-])c1 | 66 |
| Cc1nn(C)c(Nc2ccc(OC(F)(F)F)cc2[N+](=O)[O-])c1-c1ccc(F)cc1Cl | 72 |
| Cc1nn(C)c(Nc2c(Cl)cccc2[N+](=O)[O-])c1-c1c(F)cc(F)cc1Cl | 98 |
| COc1ccc(Nc2c(-c3c(F)cc(F)cc3Cl)c(C)nn2C)c([N+](=O)[O-])c1 | 99 |
| Cc1nn(C)c(Nc2ccc(Cl)cc2[N+](=O)[O-])c1-c1ccc(F)cc1F | 95 |
| Cc1nn(C)c(Nc2cc(Cl)ccc2[N+](=O)[O-])c1-c1ccc(F)cc1Cl | 20 |
| Cc1cccc([N+](=O)[O-])c1Nc1c(-c2c(F)cc(F)cc2F)c(C)nn1C | 98 |
| COc1ccc(Nc2c(-c3ccc(C#N)cc3Br)c(C)nn2C)c([N+](=O)[O-])c1 | 79 |
| COc1ccc(-c2c(C)nn(C)c2Nc2ccccc2[N+](=O)[O-])c(Cl)c1 | 31 |
| Cc1cccc([N+](=O)[O-])c1Nc1c(-c2ccc(C#N)cc2Cl)c(C)nn1C | 76 |
| Cc1cc(Cl)c(Nc2c(-c3c(F)cccc3F)c(C)nn2C)c([N+](=O)[O-])c1 | 21 |
| Cc1cccc([N+](=O)[O-])c1Nc1c(-c2ccc(F)cc2F)c(C)nn1C | 50 |
| Cc1nn(C)c(Nc2c(F)cccc2[N+](=O)[O-])c1-c1c(Cl)cccc1Cl | 98 |
| COc1ccc(Nc2c(-c3c(F)cc(C#N)cc3F)c(C)nn2C)c([N+](=O)[O-])c1 | 98 |
| Cc1ccc(Nc2c(-c3ccc(C#N)cc3Cl)c(C)nn2C)c([N+](=O)[O-])c1 | 83 |
| C#CCOc1ccc(Nc2c(-c3ccc(F)cc3Cl)c(C)nn2C)c([N+](=O)[O-])c1 | 76 |
| Cc1nn(C)c(Nc2c(F)cc(Cl)cc2[N+](=O)[O-])c1-c1ccc(F)cc1Br | 99 |
| Cc1nn(C)c(Nc2ccccc2[N+](=O)[O-])c1-c1c(F)cc(F)cc1F | 97 |
| Cc1ccc(Nc2c(-c3ccc(F)cc3F)c(C)nn2C)c([N+](=O)[O-])c1 | 61 |
| Cc1nn(C)c(Nc2c(Cl)cccc2[N+](=O)[O-])c1-c1c(F)cc(F)cc1F | 99 |
| Cc1nn(C)c(Nc2c(F)cccc2[N+](=O)[O-])c1-c1c(F)cccc1F | 86 |
| CCc1nn(C)c(Nc2c(Cl)cccc2[N+](=O)[O-])c1-c1ccc(F)cc1F | 94 |
| CCOc1ccc(Nc2c(-c3ccc(F)cc3Cl)c(C)nn2C)c([N+](=O)[O-])c1 | 50 |
| Cc1nn(C)c(Nc2ccc(OC(F)F)cc2[N+](=O)[O-])c1-c1ccc(F)cc1Cl | 69 |
